- procedure_details: Short term HFD mouse model: liver and plasma exposure after multiple oral dosing
- Format: in vivo, mice (C57BL/6J)
- measurement_setup: C57BL/6J, plasma, HFD mice, three oral doses of 5 mg/kg each, 4 h after final dose, read-out: plasma exposure, 4 h
quantity: concentration at 4 h (nM)
A number alone suffices; assume nM.

Ask: I am curious: what concentration at 4 h value has been reported for Cc1ccc2ccccc2c1CN(Cc1ccc(-c2cccc(C(C)(C)C(=O)O)c2)cc1)Cc1ccc(C(F)(F)F)o1 ?
Reply: 893

---

EC50 overview
- study_target: GST-LXRβ ligand-binding domain (Homo sapiens, UniProt P55055, INS174Q)
- Construct: amino acids 156-461; NP009052
- Sequence (P55055 with tags, fused parts or gaps INS174Q limits assumed): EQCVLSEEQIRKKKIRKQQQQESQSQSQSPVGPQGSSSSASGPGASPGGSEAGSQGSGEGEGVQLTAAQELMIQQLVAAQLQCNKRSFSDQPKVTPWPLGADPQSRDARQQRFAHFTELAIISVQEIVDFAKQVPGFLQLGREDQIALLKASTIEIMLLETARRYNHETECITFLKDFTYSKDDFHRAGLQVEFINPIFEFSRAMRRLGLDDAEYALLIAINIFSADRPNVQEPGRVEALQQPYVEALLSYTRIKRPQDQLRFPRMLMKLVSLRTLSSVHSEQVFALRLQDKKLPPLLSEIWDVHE
- procedure_details: TR-FRETβ activity assay (NCoA3 coactivator peptide recruitment)
- measurement_setup: 1 μM 24(S)-25-epoxycholesterol as prestimulating agonist; inverse agonist unless *

Completed entries (count: 5):
compound: Cc1ccc2ccccc2c1C(=O)N(Cc1ccc(-c2cccc(S(=O)(=O)CC(=O)O)c2)cc1)Cc1ccc(C(F)(F)F)n1C
measured: > 10000 nM
//
compound: Cc1cc(C)c(C(=O)N(Cc2ccc(-c3cccc(C(C)(C)C(=O)O)c3)cc2)Cc2ccc(C(F)(F)F)o2)c(C)c1
measured: 100 to 1000 nM
//
compound: Cc1nc2cccnc2c(C(=O)N(Cc2ccc(-c3cccc(C4(C(=O)O)CC4)c3)cc2)Cc2ccc(C(F)(F)F)o2)c1C
measured: 100 to 1000 nM
//
compound: Cc1nc2cccnc2c(C(=O)N(Cc2ccc(-c3cc(F)cc(C4(C(=O)O)CC4)c3)cc2)Cc2ccc(C(F)(F)F)o2)c1C
measured: 100 to 1000 nM
//
compound: COc1cc(-c2cc(F)c(CO)c(S(=O)(=O)CC(=O)O)c2)ccc1CN(Cc1ccc(C(F)(F)F)o1)Cc1c(C)cc(C)cc1C
measured: 1000 to 10000 nM

Ask: For GST-LXRβ ligand-binding domain (Homo sapiens, UniProt P55055, INS174Q), provide EC50 of Cc1ccc2ccccc2c1C(=O)N(Cc1ccc(-c2cccc(C(C)(C)C(=O)O)c2)cc1)Cc1ccc(C(F)F)o1 please.
Reply: 100 to 1000 nM

Ask: Recall the recorded EC50 for CC(C)(C(=O)O)c1cccc(-c2ccc(CN(Cc3ccc(C(F)(F)F)o3)C(=O)c3c4ccccc4nc4ccccc34)cc2)c1 with GST-LXRβ ligand-binding domain (Homo sapiens, UniProt P55055, INS174Q) and state it.
Reply: < 100 nM
